compounds and their reported viability, T/C
System: 695427-040-R-J1-PDC complex spheroid viability;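 also: viability read after seven days of drug exposure; 100% = DMSO vehicle control viability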
method: Anticancer human tumor 695427-040-R-J1-PDC patient-derived colon adenocarcinoma cell line growth inhibition [RAS]
runConditions: second compound 0.00949 µM; first compound 3.16 µM; stronger effect = lower value
# number only, unit % dropped from output

[[record]]
compound = "Cc1nc(N2CCC3(CC2)COC(C)C3N)c(CO)nc1Sc1ccnc(N)c1Cl (centres undefined) + CCn1c(-c2cc(N3CCN(C)CC3)cnc2C(C)OC)c2c3cc(ccc31)-c1csc(n1)CC(NC(=O)C1CC1C)C(=O)N1CCCC(N1)C(=O)OCC(C)(C)C2"
experimentalsystem = "695427-040-R-J1-PDC complex spheroid viability"
propertylabel = "viability, T/C"
numericresult = 33.9

[[record]]
compound = "CC(C)NCC(C(=O)N1CCN(c2ncnc3c2C(C)CC3O)CC1)c1ccc(Cl)cc1 (centres undefined) + CCn1c(-c2cc(N3CCN(C)CC3)cnc2C(C)OC)c2c3cc(ccc31)-c1csc(n1)CC(NC(=O)C1CC1C)C(=O)N1CCCC(N1)C(=O)OCC(C)(C)C2"
experimentalsystem = "695427-040-R-J1-PDC complex spheroid viability"
propertylabel = "viability, T/C"
numericresult = 85.3

[[record]]
compound = "NC1c2ccccc2OC12CCN(c1cnc3c(N4CCCc5ncccc54)n[nH]c3n1)CC2 (centres undefined) + CCn1c(-c2cc(N3CCN(C)CC3)cnc2C(C)OC)c2c3cc(ccc31)-c1csc(n1)CC(NC(=O)C1CC1C)C(=O)N1CCCC(N1)C(=O)OCC(C)(C)C2"
experimentalsystem = "695427-040-R-J1-PDC complex spheroid viability"
propertylabel = "viability, T/C"
numericresult = 18.2


Ask: Which measured viability, T/C value corresponds to CC(=O)OC12COC1CC(O)C1(C)C(=O)C(O)C3=C(C)C(OC(=O)C(O)C(NC(=O)OC(C)(C)C)c4ccccc4)CC(O)(C(OC(=O)c4ccccc4)C21)C3(C)C (centres undefined) + CCn1c(-c2cc(N3CCN(C)CC3)cnc2C(C)OC)c2c3cc(ccc31)-c1csc(n1)CC(NC(=O)C1CC1C)C(=O)N1CCCC(N1)C(=O)OCC(C)(C)C2 ?
Result: 49.7
